Hey, just so you know, these numbers are from ChEMBL document CHEMBL4513154.

# Test system: Staphylococcus aureus
# Condition details: Concentration 32 ug.mL-1; ASSAY_TEST Inhibition of Bacterial Growth; detection method Absorption (OD600); MEDIA CAMHB; plate type 384well; NBS; CORNING #3640; time 18 hr
# Description: Antibacterial activity against Staphylococcus aureus MRSA ATCC 43300 (CO-ADD:GP_020); MIC in CAMBH media, using NBS plates, by OD(600)
Entries with a potency or affinity are not part of this list.
For each record, write down the corresponding Inhibition.

Example cases with answers are listed next.
> print(dat)
                                smiles.code            system.name  value.observed
1  O=[N+]([O-])c1ccc(Cn2c(-c3cscn3)nc3ccccc32)cc1  Staphylococcus aureus           0.92%
2  CC(C)c1ccc(Cn2c(-c3cscn3)nc3c(Cl)cccc32)cc1  Staphylococcus aureus           1.32%

Could you report Inhibition for every entry in the following list?
1. Clc1ccc2nc(-c3cscn3)n(Cc3ccccc3)c2c1
2. CCc1ccc(Nc2nc(N)c(-c3nc4ccccc4c(=O)n3-c3ccccc3)s2)cc1
3. Fc1cc(Cn2c(-c3cscn3)nc3c(Cl)cccc32)cc(C(F)(F)F)c1

1. -8.96%
2. 14.54%
3. 6.77%

###

What Inhibition was measured for each of the following?
# System: Staphylococcus aureus
# Condition details: Concentration 32 ug.mL-1; ASSAY_TEST Inhibition of Bacterial Growth; detection method Absorption (OD600); MEDIA CAMHB; plate type 384well; NBS; CORNING #3640; time 18 hr
Entries with a potency or affinity are not part of this list.
Numbers only, in %.

Record excerpt, results attached:
> print(dat)
                                smiles.code  unit.info  value.observed
1  CCc1ccc(-n2c(-c3sc(Nc4ccccc4)nc3N)nc3ccccc3c2=O)cc1          %            9.22
2              Clc1cccc2[nH]c(-c3cscn3)nc12          %          -11.71
3  CCc1ccc(Nc2nc(N)c(-c3nc4ccccc4c(=O)n3-c3ccc(Cl)cc3)s2)cc1          %           11.42
4  N#Cc1ccc(Cn2c(-c3cscn3)nc3c(Cl)cccc32)cc1          %           -3.58
5  Nc1nc(Nc2ccc(Cl)cc2)sc1-c1nc2ccccc2c(=O)n1-c1ccccc1          %            3.07

Provide the reported Inhibition of each entry below, same order.
1. N=C(Nc1ccccc1)c1cscn1
2. N=C(Nc1ccccc1Cl)c1cscn1

1. -2.93
2. 4.17

###

Give Inhibition for every item shown.
# Test system: Staphylococcus aureus
# Condition details: Concentration 32 ug.mL-1; ASSAY_TEST Inhibition of Bacterial Growth; detection method Absorption (OD600); MEDIA CAMHB; plate type 384well; NBS; CORNING #3640; time 18 hr
Measured potencies and affinities stand elsewhere.
One number for each entry, in %.

Provide Inhibition for all items below, preserving their order.
1. Clc1ccc2c(c1)nc(-c1cscn1)n2Cc1ccccc1
2. N#Cc1ccccc1-c1ccc(Cn2c(-c3cscn3)nc3cc(Cl)ccc32)cc1
3. CCc1ccc(Nc2nc(N)c(-c3nc4ccccc4c(=O)n3-c3ccc(CC)cc3)s2)cc1
4. N#Cc1ccccc1-c1ccc(Cn2c(-c3cscn3)nc3c(Cl)cccc32)cc1

1: -3.7; 2: -3.28; 3: 1.66; 4: 2.86

Would you mind giving Inhibition for every compound in the list below?
1. Clc1cccc2c1nc(-c1cscn1)n2Cc1ccccc1
2. N#Cc1ccccc1-c1ccc(Cn2c(-c3cscn3)nc3ccc(Cl)cc32)cc1

1: -5.58; 2: -8.21
